tested on: SK-MEL-2; test: NCI tumour cell line growth inhibition, 48 h
The source made the active and inactive calls. Cut-off read from the data, not from the text of the source: active = GI50 up to about 1.1 µM and inactive = higher.
measurementLabel: GI50

A selection of reference data follows.
| compound | GI50 |
| --- | --- |
| CCCCCCCCCC1CC(=O)OC23CCCC(=O)C12O3 (stereo not drawn) | > 100 µM (inactive) |
| O=C(Nc1cccc([N+](=O)[O-])c1)/C(=N\NC(=O)c1ccncc1)c1nc2ccc([N+](=O)[O-])cc2nc1O | > 100 µM (inactive) |
| COc1cc2c(c(OC)c1OC)-c1ccc(SC)c(=O)cc1[C@@H](NCc1cccc([N+](=O)[O-])c1)CC2 | < 0.01 µM (active) |

Look up GI50 for this compound: "N/C(=N\c1ccccc1)c1ccccc1N"
> 100 µM (inactive)

###

test system: MOLT-4; assay: NCI tumour cell line growth inhibition, 48 h
Calls of active or inactive are those of the source. No stated cut-off is given here; in the data, active = GI50 up to about 1.1 µM and inactive = higher. Non-standard residues stand in square brackets, D forms with d. Residues, ends and D or L forms follow the SMILES beside them. ΔPro = O=C(O)[CH]1C=CCN1
Reply using exactly one outcome from True = active, False = inactive

Previously resolved entries follow.
| molecule | cat |
| --- | --- |
| O=C1C(Cl)=C(Cl)C(=O)C(CCNc2nccs2)=C1Cl | False |
| COc1c(OC(C)C)c(OC(C)C)c2oc(=O)n3c2c1C(c1ccccc1-n1c(C)ccc1C)C=C3 (centres undefined) | False |
| CCc1c[n+]([O-])c(C)cc1[N+](=O)[O-] | False |
| COc1cc(-c2cc(=O)c3cc4c(=O)cc(-c5cc(OC)c(OC)c(OC)c5)oc4cc3o2)cc(OC)c1OC | False |
| O=C(O)C1C=CCN1C(=O)C1C=CCN1C(=O)C1C=CCN1 (centres undefined) (H-[ΔPro]-[ΔPro]-[ΔPro]-OH; configuration not given here) | False |

Recorded call for C=[N+](CNC(=O)CNC(=O)C(Cc1ccccc1)NC(=O)OC(C)(C)C)C(=O)CNC(=O)C(Cc1ccccc1)NC(=O)OC(C)(C)C (centres undefined) ?
False

Check "CCC(=O)Oc1c2ccsc2c(OC(=O)CC)c2ccsc12" too.
True

Check "COc1cc(/C=C2/C[C@H]3[C@@H]4CC=C5C[C@@H](O)CC[C@]5(C)[C@H]4CC[C@]3(C)NC2=O)cc(OC)c1OC" too.
False

Check N#CC(C(=O)/C(=N/NC(=O)c1ccccc1O)C(C#N)c1ccc(Cl)cc1)c1ccc(Cl)cc1 (centres undefined) too.
False

Check "CC(O)=C1C(=O)CCC1=O" too.
False

Check "Cc1nc2ccccc2n1Cc1ccc(NC(=S)NC2CCCCC2)cc1" too.
False

Check "Cc1ccc2c(sc(-c3ccc4c(c3)sc(-c3ccc(N(C)C)cc3)[n+]4C)[n+]2C)c1S(=O)(=O)O.Cc1ccc2c(sc(-c3ccc4c(c3)sc(-c3ccc5c(c3)sc(-c3ccc(N(C)C)cc3)[n+]5C)[n+]4C)[n+]2C)c1S(=O)(=O)O" too.
False

Check CCOC(=O)Oc1cc2c(c(OC)c1OC)-c1ccc(SC)c(=O)cc1C(NC(=O)C(F)(F)F)CC2 (centres undefined) too.
True

Check "Cc1ccc(/N=N/c2c(C)nn(C(=O)CC(=O)Nc3ccc(Cl)cc3)c2C)cc1C" too.
False

###

tested on: SK-MEL-2; assay: NCI tumour cell line growth inhibition, 48 h
Calls of active or inactive are those of the source. Cut-off read from the data, not from the text of the source: active = GI50 up to about 1.1 µM and inactive = higher.
Reply using exactly one outcome from active, inactive

| compound | testTarget | cat |
| --- | --- | --- |
| CNS(=O)(=O)c1ccc2c(c1)/C(=C1/Nc3ccccc3C1=O)C(=O)N2 | SK-MEL-2 | inactive |
| CC(C)NCC(O)c1ccc(OCc2ccccc2)c(OCc2ccccc2)c1-c1ccccc1 (centres undefined) | SK-MEL-2 | inactive |
| NNc1nc2ccccc2c(=O)n1NC(=O)C(=O)Nc1cccc(C(F)(F)F)c1 | SK-MEL-2 | inactive |

Moving on to another compound below.
Recorded call for "O=C1C(Cl)=C(Cl)C(=O)C(CCNc2nccs2)=C1Cl" ?
inactive

###

system: 786-0; assay: NCI tumour cell line growth inhibition, 48 h
Activity calls are given as the source filed them. No stated cut-off is given here; in the data, active = GI50 up to about 1.1 µM and inactive = higher.
measurementLabel: GI50

| compound | endpointValue |
| --- | --- |
| O=C1N=C2Sc3ccc4ccccc4c3N2C1=O | 19.8 µM (inactive) |
| CC1OC(OC2C(OC3CCC4(C)C(CCC5(C)C4CC=C4C6CC(C)(C)CCC6(C(=O)O)CCC45C)C3(C)CO)OCC(O)C2O)C(O)C(O)C1O (stereo not drawn) | 30.7 µM (inactive) |

Look up GI50 for this compound: Cc1ccc(C(=O)C(C)N)cc1C (stereo not drawn)
> 100 µM (inactive)

###

tested on: Hs-578T; experiment: NCI tumour cell line growth inhibition, 48 h
Calls of active or inactive are those of the source. No stated cut-off is given here; in the data, active = GI50 up to about 1.1 µM and inactive = higher.
Overview of recorded GI50 for various compounds

A selection of reference data follows.
| compound | GI50 |
| --- | --- |
| O=C(COC(c1ccc(F)cc1)c1ccc(F)cc1)N1CCN(CCCc2ccccc2)CC1 | 11.1 µM (inactive) |
| COc1cc2c3cc1Oc1c(OC)c(OC)cc4c1C(Cc1ccc(O)c(c1)Oc1ccc(cc1)CC3N(C)CC2)N(C)CC4 (configuration not stated) | 24.2 µM (inactive) |
| C[C@H](NC(=O)c1ccc(CNC(=O)/C=C/c2cccc(Oc3ccccc3)c2)cc1)c1ccccc1 | 49.9 µM (inactive) |
| CC1(C)[C@@H](Cn2cc(I)c(=O)[nH]c2=O)CC[C@@]1(C)CO | > 100 µM (inactive) |
| C[C@]12CCC(O)CC1=CC[C@@H]1[C@@H]2CC[C@]2(C)C(O)[C@H](n3ccnc3)C[C@@H]12 (some centres not stated) | > 100 µM (inactive) |
| CN(CCCNC(=O)c1nn(-c2ccc(Cl)cc2Cl)c2c1Cc1ccccc1-2)CCCNC(=O)c1nn(-c2ccc(Cl)cc2Cl)c2c1Cc1ccccc1-2 | 2.74 µM (inactive) |

Look up GI50 for this compound: "C/C(=N\N=C(N)N)c1c(C(=O)OCCCCCCOC(=O)c2nc3sccn3c2/C(C)=N/N=C(N)N)nc2sccn12"
> 100 µM (inactive)

###

Reported GI50, HCT-15.

A selection of reference data follows.
| smilesStr | GI50 |
| --- | --- |
| CN(C)CCCNC(=O)N/N=C/c1ccc([N+](=O)[O-])cc1 | > 100 µM |
| CN1CCC23c4ccccc4NC1C21CCN(C)C3Nc2ccccc21 | > 375 µM |

Consider now this further compound.
Look up GI50 for this compound: "CCOP(=O)(OCC)/C(C#N)=C/c1nccn1C"
> 100 µM

###

system: CCRF-CEM; test: NCI tumour cell line growth inhibition, 48 h
Active and inactive are the calls of the source. Rule as the data show it: active = GI50 up to about 1.1 µM and inactive = higher.
measurementLabel: GI50

A selection of reference data follows.
| molecule | testTarget | GI50 |
| --- | --- | --- |
| O=S(=O)(c1ccccc1)C1CN(Cc2ccccc2)CCN(Cc2ccccc2)C1 | CCRF-CEM | 5.14 µM (inactive) |
| COc1ccc(NC(=O)CC(=O)n2nc(-c3ccccc3)c(/N=N/c3ccc(C)cc3)c2-c2ccccc2)cc1 | CCRF-CEM | > 84.7 µM (inactive) |
| COC(=O)C1CC/C(=N/C2c3ccccc3-c3ccccc32)N1 (stereo not given) | CCRF-CEM | 58.6 µM (inactive) |
| COc1c(O)c(O)cc2c1-c1ccc(OC)c(=O)cc1C(NC(C)=O)CC2 (stereo not given) | CCRF-CEM | 3.72 µM (inactive) |

Look up GI50 for this molecule: Nc1nc(=O)c2cc(NCc3ccc(C(=O)NC(CCC(=O)O)C(=O)O)cc3)ccc2[nH]1 (stereo not given)
> 100 µM (inactive)

###

tested on: SNB-19; assay: NCI tumour cell line growth inhibition, 48 h
Active and inactive are the calls of the source. No stated cut-off is given here; in the data, active = GI50 up to about 1.1 µM and inactive = higher.
Overview of recorded GI50 for various compounds

A selection of reference data follows.
| compound | GI50 |
| --- | --- |
| N/C(=N\c1ccccc1)c1ccccc1N | > 100 µM (inactive) |
| COc1ccc2c(c1)CCC(OS(=O)(=O)CC13CCC(CC1=O)C3(C)C)C2=O (stereo not drawn) | 41.9 µM (inactive) |

Look up GI50 for this compound: "COC(=O)NC(Nc1ccc(Cl)cc1Cl)(C(F)(F)F)C(F)(F)F"
> 100 µM (inactive)

###

test system: 786-0; experiment: NCI tumour cell line growth inhibition, 48 h
Activity calls are given as the source filed them. No stated cut-off is given here; in the data, active = GI50 up to about 1.1 µM and inactive = higher.
measurementLabel: GI50

A selection of reference data follows.
| molecule | GI50 |
| --- | --- |
| Cc1cn([C@@H]2O[C@H](CO[Si](C)(C)C(C)(C)C)[C@]3(O[C@H]3C(=O)NN)[C@H]2O[Si](C)(C)C(C)(C)C)c(=O)[nH]c1=O | 4.06 µM (inactive) |
| C[C@H](NC(=O)C(C)(Cc1ccc(O)cn1)NC(=O)c1ccccc1)c1ccccc1 (stereo partly drawn) | > 100 µM (inactive) |
| O=C1c2c(O)cccc2Cc2cc(CO)cc(O)c21 | 3.21 µM (inactive) |
| N#CC(=C1CCCCC1)c1nc2ccccc2o1 | > 100 µM (inactive) |
| O=S(=O)(c1ccccc1)C1CN(Cc2ccccc2)CCN(Cc2ccccc2)C1 | > 74 µM (inactive) |
| CCCCC/C=C1\CC(CO)(COC(=O)CC(C(C)C)C(C)C)OC1=O (stereo not drawn) | 12.1 µM (inactive) |
| CCCN(CCCC(NC(C)=O)C(=O)NCc1ccccc1)C(=O)NCCCl (stereo not drawn) | > 100 µM (inactive) |

Consider now this further molecule.
Look up GI50 for this molecule: O=C(N/N=C(/c1nc2ccc([N+](=O)[O-])cc2[nH]c1=O)C(O)c1ccc([N+](=O)[O-])cc1)c1ccncc1 (stereo not drawn)
> 100 µM (inactive)
